assay: log P; type: physicochemical
Property: log P

| Molecule | Property | Assay value |
| --- | --- | --- |
| CC(C)=C[C@H](CC(C)(C)c1ccc(C(F)(F)F)cc1)N1CCC[C@@H]1CO | log P | 5.31 |
| CC(C)=CC(CC(C)(C)c1ccc(OC(C)(C)C)cc1)N1CCC(C)(O)CC1 (stereo not drawn) | log P | 5.15 |
| CC(C)(CCN1CCC(CCO)CC1)c1ccc(Cl)cc1 | log P | 3.98 |
| CC(C)=CC(CC(C)(C)c1ccc(F)cc1)N1CCN(C)C(=O)C1 (stereo not drawn) | log P | 3.75 |
| COc1ccc(CCC(C=C(C)C)N2CCCCC2)cc1 (stereo not drawn) | log P | 4.76 |
| CC1(O)CCN(CCC(C)(C)c2ccc(Cl)cc2)CC1 | log P | 3.44 |
| CC(CC(C)(C)c1ccc(F)cc1)N1CCC(O)CC1 (stereo not drawn) | log P | 3.11 |
| CC(=O)N1CCN(C(C=C(C)C)CC(C)(C)c2ccc(F)cc2)CC1 (stereo not drawn) | log P | 3.87 |
| COCCC1(O)CCN(C(C=C(C)C)CC(C)(C)c2ccc(F)cc2)CC1 (stereo not drawn) | log P | 4.05 |

---

Reported Ki values, Sigma-1 receptors on Jurkat cell membranes (Homo sapiens (Human), UniProt Q99720).
Property: Ki (nM)

| Compound | Property | Assay value |
| --- | --- | --- |
| COC[C@H]1CCCN1C(C)CC(C)(C)c1ccc(Cl)cc1 (stereo partly drawn) | Ki | 1000 |
| CC(C)(CCN1CCC(O)CC1)c1ccc(C(F)(F)F)cc1 | Ki | 1.3 |

1. CC(C)=CC(CC(C)(C)c1ccc(Cl)cc1)N1CCC(C2CCN(C)CC2)CC1 (stereo not drawn)
2. CC(C)=CC(CC(C)(C)c1ccc(F)cc1)N1CCC(O)CC1 (stereo not drawn)
3. CC(C)=CC(CCc1ccc(C)cc1)N1CCC(C2CCOCC2)CC1 (stereo not drawn)
4. COC1CCN(CCC(C)(C)c2ccc(Cl)cc2)CC1
Qu. Put the items in order so that reported Ki rises from first to last. Please list the labels in the order you were asked to rank them.
Ans. 4, 1, 3, 2
(4: 0.7 nM, 1: 61 nM, 3: 535 nM, 2: 1200 nM)

1. CC(C)=CC(CC(C)(C)c1ccc(C(F)(F)F)cc1)N1CCC(CO)CC1 (stereo not drawn)
2. CC(CC(C)(C)c1ccc(Cl)cc1)N1CCC(C)(O)CC1 (stereo not drawn)
Qu. // task: argmin of Ki over [ 1 , 2 ] Response format: the label of the selected entry.
Ans. 2

---

target: Sigma-2 receptors on membranes from rat cerebral cortex (Rattus norvegicus (Rat), UniProt Q5U3Y7)
Sequence (Q5U3Y7 whole entry): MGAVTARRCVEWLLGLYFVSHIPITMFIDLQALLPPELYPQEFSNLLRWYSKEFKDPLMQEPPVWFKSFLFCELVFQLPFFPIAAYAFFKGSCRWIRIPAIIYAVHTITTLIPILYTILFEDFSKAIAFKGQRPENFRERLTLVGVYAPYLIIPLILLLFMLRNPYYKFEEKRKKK
pKi: −log10 of the molar value.
Property: pKi

| Molecule | pKi |
| --- | --- |
| CC(C)=CC(CC(C)(C)c1ccc(Cl)cc1)N1CCC2(CCOCC2)CC1 (stereo not drawn) | 7.17 |
| COC1CCN(C(C=C(C)C)CC(C)(C)c2ccc(C(F)(F)F)cc2)CC1 (stereo not drawn) | 7.37 |

1. CC(C)=CC(COc1ccc(F)cc1)N1CCC(O)CC1 (stereo not drawn)
2. CC(C)=CC(CC(C)(C)c1ccc(C(F)(F)F)cc1)N1CCC(O)CC1 (stereo not drawn)
Qu. Two entries are listed, 1 and 2 . Which one carries the higher pKi? Response format: the label of the selected entry.
Ans. 1

1. CC1(O)CCN(CCC(C)(C)c2ccc(C(F)(F)F)cc2)CC1
2. CC(C)=CC(CC(C)(C)c1ccc(F)cc1)N1CCCCC1 (stereo not drawn)
Qu. Two entries are listed, 1 and 2 . Which one carries the higher pKi? Response format: the label of the selected entry.
Ans. 1
(1: 8.52, 2: 6.52)

A. CC(C)=CC(CC(C)(C)c1ccc(Cl)cc1)N1CCC(c2ccnc(N3CCOCC3)c2)CC1 (stereo not drawn)
B. CC(C)=CC(CC(C)(C)c1ccc(C)cc1)NCC1CCCCC1 (stereo not drawn)
C. CC(C)=CC(CC(C)(C)c1ccc(Cl)cc1)N1CCC(c2ccc(S(C)(=O)=O)cc2)CC1 (stereo not drawn)
Qu. Put the items in order so that reported pKi rises from first to last. Please list the labels in the order you were asked to rank them.
Ans. A, B, C
(A: 6.52, B: 6.96, C: 7.49)

---

Reported pKi values, Sigma-2 receptors on membranes from rat cerebral cortex (Rattus norvegicus (Rat)).
pKi: −log10 of the molar value.
Property: pKi

Completed entries (count: 3):
| Molecule | Property | Assay value |
| --- | --- | --- |
| CC(C)=CC(CC(C)(C)c1ccc(C)cc1)N1CCC(C(C)C)CC1 (stereo not drawn) [Compound 33] | pKi | 7.48 |
| CC(CC(C)(C)c1ccc(Cl)cc1)N1CCC(CO)CC1 (stereo not drawn) [Compound 16] | pKi | 8.35 |
| CC(C)=CC(CC(C)(C)c1ccc(F)cc1)N1CCC(CCO)CC1 (stereo not drawn) [Compound 58] | pKi | 6.80 |

a. CC(C)=CC(CC(C)(C)c1ccc(C)cc1)N[C@H](C)c1ccccc1 (stereo partly drawn) [Compound 80]
b. COCCCC1CCN(CCC(C)(C)c2ccc(C(F)(F)F)cc2)CC1 [Compound 4]
c. CC(CC(C)(C)c1ccc(Cl)cc1)N1CCC(C)(O)CC1 (stereo not drawn) [Compound 22]
d. CC(C)=CC(CC(C)(C)c1ccc(C(F)(F)F)cc1)N1CCC(CCO)CC1 (stereo not drawn) [Compound 28]
e. CC(C)=CC(CC(C)(C)c1ccc(F)cc1)N1CCC2(CCOCC2)CC1 (stereo not drawn) [Compound 36]
Qu. Sort the 5 molecules by pKi; largest first, smallest last. Please list the labels in the order you were asked to rank them.
Ans. b, c, d, e, a
(b: 9.10, c: 8.15, d: 7.74, e: 7.40, a: 5.89)

---

test: Mouse liver microsome (MLM) stability; type: in vitro ADME; conditions: microsomal stability in mouse liver microsomes (MLM)
Property: MLM T1/2 (min)

Completed entries (count: 5):
| Compound | Units text | MLM T1/2 |
| --- | --- | --- |
| CC(C)=CC(CC(C)(C)c1ccc(Cl)cc1)N1CCC(CCO)CC1 (stereo not drawn) [Compound 53] | min | 28 |
| COc1ccc(C(C)(C)CC(C=C(C)C)N2CCC3(CCOCC3)CC2)cc1 (stereo not drawn) [Compound 98] | min | 1.7 |
| COc1ccc(C(C)(C)CC(C=C(C)C)NCCCC2CCOCC2)cc1 (stereo not drawn) [Compound 106] | min | 3.9 |
| CC(C)=CC(CC(C)(C)c1ccc(C)cc1)NCCC1CCOCC1 (stereo not drawn) [Compound 101] | min | 1.8 |
| CC(C)=CC(CC(C)(C)c1ccc(C(F)(F)F)cc1)N1CCOCC1 (stereo not drawn) [Compound 72] | min | 2.1 |

a. COc1ccc(C(C)(C)CC(C=C(C)C)NCCC2CCOCC2)cc1 (stereo not drawn) [Compound 102]
b. CC(C)=CC(CC(C)(C)c1ccc(C(F)(F)F)cc1)N1CCCCC1 (stereo not drawn) [Compound 61]
c. CC(C)=CC(CC(C)(C)c1ccc(Cl)cc1)N1CCC2(CCOCC2)CC1 (stereo not drawn) [Compound 41]
d. CC(C)=CC(CC(C)(C)c1ccc(C)cc1)N1CCC2(CCOCC2)CC1 (stereo not drawn) [Compound 97]
Qu. Sort the 4 compounds by MLM T1/2; largest first, smallest last. Please list the labels in the order you were asked to rank them.
Ans. b, c, d, a

---

assay: log P; assay type: physicochemical
Property: log P

I. CC(CC(C)(C)c1ccc(Cl)cc1)N1CCC(CO)CC1 (centres unmarked)
II. CC(C)=CC(CC(C)(C)c1ccc(F)cc1)N1CCC2(CC1)OCc1ccccc12 (centres unmarked)
Qu. // task: argmin of log P over [ I , II ] Response format: the label of the selected entry.
Ans. I
(I: 4.03, II: 6.16)

---

assay: log P; format: physicochemical
Property: log P

Completed entries (count: 8):
| Compound | log P |
| --- | --- |
| COC[C@H]1CCCN1[C@H](C=C(C)C)CC(C)(C)c1ccc(Cl)cc1 [Compound 235] | 5.68 |
| CCCCC1(O)CCN(C(C=C(C)C)CC(C)(C)c2ccc(Cl)cc2)CC1 (stereo not drawn) [Compound 214] | 6.27 |
| COc1ccc(C(C)(C)CC(c2ccccc2)N2CCC(C3CCOCC3)CC2)cc1 (stereo not drawn) [Compound 122] | 5.91 |
| CC(C)=CC(CC(C)(C)c1ccc(F)cc1)N1CCC(O)CC1 (stereo not drawn) [Compound 79] | 4.12 |
| CC(C)=CC(CC(C)(C)c1ccc(Cl)cc1)N1CCC(OC(C)C)CC1 (stereo not drawn) [Compound 158] | 5.99 |
| COCC1CCCN1C(C=C(C)C)CC(C)(C)c1ccc(F)cc1 (stereo not drawn) [Compound 245] | 5.22 |
| COCCOCCC1CCN(CCC(C)(C)c2ccc(Cl)cc2)CC1 [Compound 303] | 4.58 |
| CC(C)=CC(CC(C)(C)c1ccc(C)cc1)N1CCC2(CC1)COC2 (stereo not drawn) [Compound 107] | 5.21 |

P. COCCOCCC1CCN([C@H](C=C(C)C)CC(C)(C)c2ccc(C(F)(F)F)cc2)CC1 [Compound 263]
Q. COC[C@H]1CCCN1CCC(C)(C)c1ccccc1 [Compound 300]
Qu. // task: argmin of log P over [ P , Q ] Response format: the label of the selected entry.
Ans. Q
(Q: 3.65, P: 6.28)

a. CC(C)=CC(CC(C)(C)c1ccc(F)cc1)N1CCC(N2CCOCC2)CC1 (stereo not drawn) [Compound 126]
b. CC(C)=CC(COc1ccc(F)cc1)N1CCC(O)CC1 (stereo not drawn) [Compound 18]
Qu. // task: argmin of log P over [ a , b ] Response format: the label of the selected entry.
Ans. b
(b: 2.72, a: 4.61)

I. COCCCC1CCN(C(C=C(C)C)CC(C)(C)c2ccc(OC(C)C)cc2)CC1 (stereo not drawn) [Compound 171]
II. CC(C)=CC(CC(C)(C)c1ccc(S(C)(=O)=O)cc1)N1CCC(c2ccncc2)CC1 (stereo not drawn) [Compound 51]
III. CC(C)=CC(COc1ccc(Cl)cc1)N1CCC(O)CC1 (stereo not drawn) [Compound 186]
Qu. Sort the 3 compounds by log P; largest first, smallest last. Please list the labels in the order you were asked to rank them.
Ans. I, II, III
(I: 6.5, II: 4.55, III: 3.18)

Attribution: patent US11214540B2
